# key: entry, value: inhibition at 1 µM
# Tgt: UniProtKB Q13627
# Assay Name: Kinase panel profiling at 1 µmol/L (MSA or IMAP), percentage inhibition
# Assay type: biochemical
# Assay Setup: kinase DYRK1A; 1 µmol/L single concentration; read-out: %-inhibition at 1 µmol/L, DYRK1A

Examples from the recorded data:
FC(F)(F)c1ccc(CNc2ccc(Cc3c[nH]c4ncc(Cl)cc34)cn2)cn1 ... 8%
C[C@H]1Oc2cc(cnc2N)-c2c(nn(C)c2C#N)CN(C)C(=O)c2ccc(F)cc21 ... -4.39%
COc1cc2ncnc(Nc3ccc(F)c(Cl)c3)c2cc1NC(=O)/C=C/CN1CCCCC1 ... 9%

Now for another entry.
QUERY: Quote inhibition at 1 µM with test system UniProtKB Q13627 for Cn1cnc2c(F)c(Nc3ccc(Br)cc3F)c(C(=O)NOCCO)cc21
RESULT: -8%
